Cited source: patent US20240109881A1

biological target: IRAK4 (Homo sapiens, UniProt Q9NWZ3); construct: endogenous in cells; assay: ALE THP1 HTRF (Advanced Lipoxidation End Product THP1 Homogeneous Time Resolved Fluorescence); details: THP1 cells
Sequence (Q9NWZ3 whole entry): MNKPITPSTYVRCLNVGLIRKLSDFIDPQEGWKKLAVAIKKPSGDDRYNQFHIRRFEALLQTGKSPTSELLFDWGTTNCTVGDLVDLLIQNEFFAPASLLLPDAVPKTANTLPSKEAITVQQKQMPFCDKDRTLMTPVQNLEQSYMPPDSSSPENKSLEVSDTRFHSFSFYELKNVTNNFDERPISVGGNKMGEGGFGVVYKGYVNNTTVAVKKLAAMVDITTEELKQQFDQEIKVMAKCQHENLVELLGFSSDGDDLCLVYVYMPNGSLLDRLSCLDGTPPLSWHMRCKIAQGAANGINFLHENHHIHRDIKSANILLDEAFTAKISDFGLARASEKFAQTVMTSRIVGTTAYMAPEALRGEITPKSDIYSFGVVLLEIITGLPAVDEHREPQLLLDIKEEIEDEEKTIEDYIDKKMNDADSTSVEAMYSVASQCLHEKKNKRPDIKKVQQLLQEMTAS
Measurement kind: pEC50
Scale: pEC50 equals -log10([C]), with [C] in mol/L.

[Q] Item under review: N#Cc1cnc2c(ccn2-c2cc(NC3CC3)c(C(=O)NC3CCC(CN4CCC(CNc5ccc(C6CCC(=O)NC6=O)cc5)CC4)CC3)cn2)c1 (stereo not shown) . Reported pEC50?
[A] 6.91

[Q] Item under review: CC(C)(C[C@H]1CC[C@H](NC(=O)c2cnc(-n3ncc4cc(C#N)cnc43)cc2NC2CCCC2)CC1)N1CCN(c2ccc(C3CCC(=O)NC3=O)cc2)CC1 (stereo partly shown) . Reported pEC50?
[A] 7.14

[Q] Sample C[C@@H]1CN(c2ccc(C3CCC(=O)NC3=O)cc2)CCN1CCC1CCC(NC(=O)c2cnc(-n3ncc4cc(C#N)cnc43)cc2NC2CCCC2)CC1 (stereo partly shown) — what was its pEC50?
[A] 6.97

[Q] Reported pEC50 for N#Cc1cc2ccn(-c3cc(NC4CC4)c(C(=O)NC4CCC(CCN5CCN(c6ccc(C7CCC(=O)NC7=O)cc6)CC5)CC4)cn3)c2nc1F (stereo not shown) : what is it?
[A] 5.96

[Q] Consider the compound C[C@H](C#N)Nc1cc(-n2ncc3cc(C#N)cnc32)ncc1C(=O)N[C@H]1CC[C@H](CCN2C[C@@H](C)N(c3ccc(C4CCC(=O)NC4=O)cc3)C[C@@H]2C)CC1 (stereo partly shown) and give its measured pEC50.
[A] 8.10

[Q] Which value of pEC50 has been reported for O=C1CCC(N2C(=O)c3ccc(N4CCN(C[C@H]5CC[C@H](NC(=O)c6cnc(Nc7ccc8ncsc8c7)cc6NC6CCCC6)CC5)CC4)cc3C2=O)C(=O)N1 (stereo partly shown) in the records?
[A] 6.56

[Q] Name the reported pEC50 value associated with the compound COc1cc(N2C[C@H](C)N(CC[C@H]3CC[C@H](NC(=O)c4cnc(-n5ncc6cc(C#N)cnc65)cc4N[C@H](C)C#N)CC3)[C@@H](C)C2)ccc1C1CCC(=O)NC1=O (stereo partly shown)
[A] 7.77

[Q] Which pEC50 is reported for this compound? COc1cc(C2CCC(=O)NC2=O)ccc1N1CCN(CCC2CCC(NC(=O)c3cnc(-n4ncc5cc(C#N)cnc54)cc3NC3CC3)CC2)CC1 (stereo not shown)
[A] 7.59

[Q] Can you look up the measured pEC50 of C[C@@H]1CN(C(=O)C2CCC(NC(=O)c3cnc(-n4ncc5cc(C#N)cnc54)cc3NC3CCCC3)CC2)CCN1c1ccc2c(c1)C(=O)N(C1CCC(=O)NC1=O)C2=O (stereo partly shown) for me?
[A] 7.66

[Q] Param item = C[C@H](C#N)Nc1cc(-n2ncc3cc(C#N)cnc32)ncc1C(=O)N[C@H]1CC[C@H](CCN2[C@@H](C)CN(c3ccc(C4CCC(=O)NC4=O)cc3)C[C@@H]2C)CC1 (stereo partly shown) ; retrieve measured pEC50.
[A] 8.40

[Q] What value of pEC50 has been recorded for this entry: CN(C[C@H]1CC[C@H](NC(=O)c2cnc(-n3ncc4cc(C#N)cnc43)cc2NC2CC2)CC1)C1CCN(c2ccc3c(c2)CN(C2CCC(=O)NC2=O)C3=O)CC1 (stereo partly shown)
[A] 8.10

[Q] Fill blank: measured pEC50 of the compound N#Cc1cnc2c(cnn2-c2cc(NC3CC3)c(C(=O)N[C@H]3CC[C@H](CN4CCC5(CCN(c6ccc7c(c6)CN(C6CCC(=O)NC6=O)C7=O)CC5)C4)CC3)cn2)c1 (stereo partly shown) is ____.
[A] 7.82

[Q] For the compound shown here, CC(C)Nc1cc(Nc2ccc(C#N)cc2Cl)ncc1C(=O)N[C@H]1CC[C@H](CCN2CCN(c3ccc(C4CCC(=O)NC4=O)cc3)CC2)CC1 (stereo partly shown) , give the reported pEC50.
[A] 7.03
